Consider the following variants; for each one, report its polymerase ribozyme fitness (log ratio).
B1: TPR t1 (parent)
chain: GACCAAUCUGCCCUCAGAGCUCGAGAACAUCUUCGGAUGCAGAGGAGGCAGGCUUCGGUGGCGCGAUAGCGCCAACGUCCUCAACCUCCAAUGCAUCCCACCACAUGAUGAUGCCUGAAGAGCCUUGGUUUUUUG

# Variants of: B1
# assay_comment: polymerase ribozyme fitness, log enrichment relative to wild type (log ratio); higher = more active; in vitro selection for triplet polymerase activity
Numbers only.

Worked cases, polymerase ribozyme fitness (log ratio) given:
GACCAAUCUGCCCUCAGAGCUCGAGAACAUCUUCGGAUGCAGAGGAGGCAGGCUUCGGUGGCGCGAUAGCGCCAACGUCCUCAACCUCCAAUGCAUCCCACCACAUGAUCAUGCCUGAAGAGCCUUGUUUUUUUG :: -4.78
GACCAUUCUGCCCUCAGAGCUCGAGAACAUCUUCGGAUGCAGAGGAGGGAGGCUUCGGUGGAGCGAUAGCGCCAACGCCCUCAACCUACAAUGCAUCCCACCACAUGAUGAUGCCUGAUGAGCCUUGGUUUUUUG :: -3.67
GACCAAUCUCCCCUCAGAGCUCGAGAACAUCUUCGGAUGCAGAGGAGGCAGGCUUCGGUGGCGCGAUAGCGCCAACGUCCUCAACCUCAAAUGCAUCCCACCACAUGAUGAUGCCUGAAGAGCCUUGGUUUUUUG :: -2.73
GACCAAUCUGCCCUCAGAGCUCGAGAACAUCUUCGGAUGCAGAGGAGGCAGGCUUCGGUGGCGCGAUAGCGCCAACGUCCUCAACCUCCAAUGCAUCCCACCAUAUGAUGAUCCCUGAAGAGACUUGGUUUUUUG :: -3.61
GACCAUUCUGCCCUCAGAGCUCGGGAACAUCUUCGGUUGCAGCGGAGGCAGGCUUCGGUGGCGCGUUAGCGCCAACGUCCUCAACCUCCAAUGCAUCCCACCACAUGAUGAUGCCUGAAGAGCCUUGGUUUUUUG :: -5.69

State recorded polymerase ribozyme fitness (log ratio) for all listed variants.
1. GACCAAUCUGCCCUCAGAGCUCGAGAACAUCUUCGGAUGCAGAGGAGGCAGGCUUCGGUGGCCCGAUAGCGCCAACGUCCUCAACCUCCCAUGCAUCCCACCACAUGAUGAUGCCUGAAGAGCCUUGGUUUUUUG
2. GACCAAUCUGCCCUCAGAGCUCGAGAACAUCUUCGGAUGCAGAGGAGGUAGGCUUCGGUGGCGCGAUAGCGCCAACGUCCUAAACCUCCAAUGCAUCCCACCACAUGAUGAUGCCUGAAGAGCCUUGGUUUUUUG
3. GACCAAUCUGCCCUCAGAGCUCGAGAACAUCUUCGGUUGCAGAGGAGGCAUGCUUCGGUGGCGCGAUAGCGCCAACAUCCUCAACCUCCAUUGCAUCCCACCACAUGAUGAUGCCUGAAGAGCCUUGGUUUUUUG
4. GACAAAUCUGCCCUGAGAGCUCGAGAACAUCUUCGGAUGCAGAGGAUGCAGGCUUCGGUGGCGUGAUAGCGCCAACGUCCUCAACCUCCAAUGCAUCCCACCACAUGAUGAUGCGUGAUUAGCCUUGGUUUUUUU

## Output
1: -2.06; 2: -0.514; 3: -6.95; 4: -7.19

State recorded polymerase ribozyme fitness (log ratio) for all listed variants.
1. GACCAAUCUGCCCUCAGAGCUCGAGAACAUCUUCGGAUGCAGAGGUGGCAGGCUUGGGUGUCGCGAUAGCGCCAACGUCCUCAACCUCCAAUGCAUCCCACCACUUGAUGAUGCCUGAAGAGUCUUGGUUUUUUG
2. GACCAAUCUGCCCUCAGAGCUCGAGAACAUCUUCGGAUGCAGAGGAGGCAGGCUUCGGUGCCGCGAUAGCGCCAACGUCCUCAACCUCCAAUGCAUCCCACCACAUGAAGAUGCCUGAAGAGCCUUGGUUUUUUG
3. GACCAAUCUGCCCUCAGAGCUCGAGAACAUCUUCGGAUGCAGAGGAGGCAGGCUUCGGUGGCACGAUAGCGCUAACGUCCUCAACCUCCAAUGCAUCCCACCACAUGAUGAUGCCUGAAGAGCCUUGGUGUUUUG
4. GACCAAUCUGCCCUCAGAGCUCGAGAACAUCUUCGGAUGCAGAGGAGGCAGGCUUCGGUGGCGCGAUAGCGCCAACGUCCUCAACCUCCAAUGCAUCCCACCACAUGAUCAUGCCUUAAGAGCCUUGGUUUUUUG
5. GACCAAUCUGCCCUCAGAGCUCGAGAACAUCUUCGGAUGCAGAGGAGGCAGGCUUCGGUGGCGCGAUGGCGCCAACGUCCUCAACCUCCAAUGCAUCCCACCACAUGAUGAUGCCUGAAGAACCUUGGUUUUUUG

## Output
1. -5.93
2. -4.34
3. -0.938
4. -5.43
5. -2.55

State recorded polymerase ribozyme fitness (log ratio) for all listed variants.
1. GACCAAUCUGCCAUCAGAGCUCGAGAACAUCCUCGGAUGCAGAGGAGGCAGGCUUCGGUGGCGCGAUAGCGCCAACGUCCUCAACCUCCAAUGCAUCCCACCACAUGAGGAUGCCUGAACAGCCUUGGUUUUUUG
2. GACCAAUCUGCCCUUAGAGCUCGAGAACAUCUUCGGAUGCAGAGGAGGCAGGCUUCGGUGGCGCGAUAGCGCCAACGUCCUCAACCUCCAAUGCAUCCCACCACAUGAUGAUUCCUGAAGAGCCUUGGUUUUUUG
3. GACCAAUCUGCCAUCAGAGCUCGAGAACAUCUUCGGAUGCAGAGGAGGCAGGCUUCGGUGGCCCGAUAGCGCCAACGUCCUCAACCUCCAAUGCAUCCCACCACAUGAUGAUGCCUGAAGAGCCUUGGUUUUUUG
4. GACCAAUCUGCCCUCAGAGCUCGAGAAAAUCUUCGGAUGCAGAGGAGGCAGGCUUCGGUGGCGCGAUAGCGCCAACGCCCUCAACCUCCAUUGCAUCCCACCACAAGAUUAUGCCUGAAGAGCCUUGGUUUUUUG
5. GACCAAUCUGCCCUCAGAGCUCGAGAACAUCUUCGGAUGCUGAGGAGGCAGGCUUCGGUGUCGCGAUAGCGCCAACGUCCUCAACCUCCAAUGCAUCCCACCACAUGAUGAUGCCUGAAGAGCCUUGGUUUUUUG
6. GACCAAUCUACCCUCAGAGCUCGAGAACAUCCUCGGAUGCAGAGGAGGCAGGCUUCGGUGGCGCGAUAGCGGCAACGUCCUCAACCACCAAUGCAUCCCACCACAUGAUGAUGCCUGAAGAGCCUUGGUUAUUUG

## Output
1. -5.75
2. -3.92
3. -2.37
4. 0.263
5. -0.703
6. -2.99

State recorded polymerase ribozyme fitness (log ratio) for all listed variants.
1. GACCAAUCUGCCCUCAGAGCUCGAGAACAUCUUCGGAUGCAGAGGAGGCAGGCUGCGGUUGCGCGAUAGCGCCAACGUCCUCAACCUCCAAUGCAUCCCACCUCAUGAUGAUGCCUGAAGAGCCUUGGUUUUUUG
2. GACCAAUCUGCUCUCAGAGCUCGAGAACAUCUUCGGAUGCAGAGGAGGCAGGCUUCGGUUGCGCGAUAGCGCCAACGUCCUCAACCUCCAAUGCAUCCCACCACAUGAUGAUGCCUGAAGAGCCUUGGUUUUUUG
3. GACCAAUCUGCCCUCAGAGCUCGAGAACAUCUUCGGAUGCAGAGGAGGCAGGCUUGGGUGGCGCGAUAGCGCCAACGUCCUCAACCUCCAAUGCAUCCCACCACAUGAUGGUGCCUGAAGAGCCUUGGUUUUUUG
4. GACCAAUCUGCCCUCAGAGCUCGAGAACAUCUUCGGAUGCAGAGGAGGCGGGCUUCGGUGGCGCGAUAGCGCUAACGUCCUCAACCUUCAAUGCAUCCCACCACAUGAUGAUGCCUGAAGAGCAUUGGUUUUUUG
5. GACCAAUCUGCCCACAGAGCUCGAGAACAUCUUCGGAUGCAGAGGAGGCAGGCUUCGGUGGCGCGAUAGGGCCAACGUCCUCAACCUCCAAUGCAUCCCACCACAUGAUGAUGCCUGAAGAGCCUUGGUUUUUUG
6. GACCAAUCUGCCCUCAGAGCUCGAGAAUAUCUUCGGAUGCAGAGGAGGCAGGCUUCGGUGGCGCGAUAGCGCCAACGUCUUCAACCUCCGAUGCAUCCCACCACAUGAUGAUGCCUGAAGAGCGUUGGUUUUUUG

## Output
[-5.31, 0.415, 0.245, 1.42, -3.97, -0.852]

State recorded polymerase ribozyme fitness (log ratio) for all listed variants.
1. GACCAAUCCGCCCUCAGAGCUCGAGAACAUCUUCGGAUGCAGAGGAGGCAGGAUUCGGUGGCGCGAUAGCGCCAACGUCCUCAACCUCCAAUGCAUCCCACCACAUGAUGAUGCCUGAAGAGGCUUGGUUUUUUG
2. GACCAAUCUGCCCUCAGAGCUCGAGAACAUCUUCGGAUGCAGAGGAGGCAGGCUUCGGUAGCGCGAUAGCGCCAACGACCUCAACCUCCAACGCAUCCCACCACAUGAUGAUGCCUGAAGAGCCUUGGUUUUUUG
3. GACCAAUCUACCCUCAGAGCUCGAGAACAUCUUCGGAUGCAGAGGAGGCAGGCUUCGGUGGAGCGAUAGCGCCAACGUCCUCAACCUCCACUGCAUCCCACCACAUGAUGAUGCCUGAAGAGUCUUGGUUUUUUG

## Output
1. 1.78
2. -1.57
3. -0.505

State recorded polymerase ribozyme fitness (log ratio) for all listed variants.
1. GACCAAUCUGCCCUCAGAGCUCGAGAACAUCUUCGGAUGCAGAGGUGGCAGGCUUCGGUGGCACGAUAGCGCCAACGUCCUCAACCUCCAAUGCAUCCCACCACAUGAUGAUGCCUGAAGAGCCUUGGUUUUUUG
2. GACCAAUCUGCGCUCAGAGCUCGAGAUCAUCUUCGGAUGCAGAGGAGGCAGGCUUUGGUGGCGCGAUAGCGCCAACGUCCUCAACCUCCAAUGCAUCCCAGAAGAUGAUGAUGUCUGAAGAGCCUUGGUUUUUUG

## Output
1. -1.91
2. -5.64

State recorded polymerase ribozyme fitness (log ratio) for all listed variants.
1. GACCAAUCUGCCCUCAGAGCUCGAGAACAUCUUCGGAUGCAGAGGUGGCAGGCUUCUGUGGCGCGAUAGCGCCAACGUCCUCAACCUCCAAUGAAUCCCACCACAUGAUGAUGCCUGAAGAGCCUUGGUUUUUUG
2. GACCAAUCUGCCCUCAGAGCUCGAGAACAUCUUCGGAUGCAGAGGAGGCAGGCUUCGGUGGCGCGAUAGCGCCAACGUCCUCAACCUCAAAUGCAUCCCACCACAUGAUGAUGCCUCAAGAGCCUUGGUUUUUUG
3. GACCAAUCGCACCUCAGAGCUCGAGAACAUCUUCGGAUGCAGAGGAGGCAGGCUUCGGUGGCGCGAUAGCGCCAACGUCCUCAACCUCUAAUGCAUCCCACCUCAUGAAGAUGCCUGAAGAGCCUUGGUUUUUUG
4. GACCAAUCUGCCCACAGAGCUCGAGAACAUCUUCGGAUGCAGAGGAGGCAGGCGUCGGUGGCGCGAUAGCGCCAACGUCCUCAUCCUCCAAUGCAUCACACCUCAUGAUGAUGCCUAAAGAGGCUUGAUUUUUUG
5. GACCAAUCUGGCCUCAGAGCUCGAGAACAUCUUCGGAUGCAGAGGAGUCAGGCUUCGGUGACGCGAUAGCGCAAACGUCCUCAACCUCCGAUGCAUCCCACCACAUGAUGAUGCCUGAAGAGCCUUGGUUUUUUG
6. GACCAAUCUGUCCUCAGAGCUCGAGAACAUCUUCGGAUGCAGAGGAGGCAGGCUUCGGUGGCGCGAUAUCGCCAACGUCCUCAACCUCCAAUGCAUCCCACCACAUGAUGAUGCCUGAAGGGCCUUGGUUUUUUG

## Output
-2.21
-4.96
-5.83
-6.1
-2.19
2.01

State recorded polymerase ribozyme fitness (log ratio) for all listed variants.
1. GACCAAUCUGCCCUCAGAGCUCGAGAACAUCUUCGGAUGCACAGGAGGCAGGCUUGGGUGGCGCGAUAGCGCCAACGUCCUCAACCUGCAAUGCAUCCCACCACAUGAUGAUGACUGAAGAGCCUUGGUUUUUUG
2. GACCAAUCUGCCCUCAGAGCUCGAGAACAUCUUCGGAUGCAGAGGAGUCAGGCUUUGGUGGCGCGAUAGUGCCAACGUCCUCAGCCUCCAUUGCAUCCCACCACAUGAUGAUGCCUGAAGAGCCUUGGUUUUUUG
3. GACCAAUCUGCCCUCAGAGAUCGAGAACAUCUUCGGAUGCAGAGGAGGCAGGCUUCGGUGGCGCGAUAGCGCCAACGUCCUCAACCUCCAAUGCAUCCCACCACAUGAUGAUGCCUGAAGAGGCUUGGUUUUUUG
4. GUCCAAUCUGCCCGCAGAGCUCGAGAACAUCUUCGGAUGCAGAGGAGGCAGGCUUCGGUGGCGCGAUAGCGCCAACGUCCUCAACCUCCAAUGCAUCCCACCACAGGAUGAUGCCUGAAAAGCGUUGGUUUUUUG
5. GACCAAUCUGCCCUAAGAGCUCGAGAACAUCUUCGGAUGCAGAGGAGGCAGUCUUCGGUGGCGCGAUAGCGCCAACGUCCUCAACCUCCAAUGCAUCCCACCACAUGAUGAUGCCUGAAGAGCCUUGGUUUUUUG
6. GACCAAUCUGCCCUCAGAGCUCGAGAACAUCUUCGGAUGCAGAGGAGGCAGGCUUCGGUGGAGCGAUAGCGCCAACGUCCUUAACCUCCAAUGCAUCCCACCACAUGAUGAUGCCUGAAGAGCCUUGGUUUUUUG
7. GACCUAUCUGCCUUCAGAGCCCGAGAACAUCUUCGGAUGCAGAGGAGGCAGGCUUCGGUGGCGCGAUAGCGCCAACGUCCUCAACCUUCAAUGCAUCCCACCACAUGAUGAUGCCUGAAUAGCCUUGGUUUUUUG
8. GACCAAUCUGACCUCAGAGCUCGAGAACAUCUUCGGAUGCAGAUGAGGCAGGCUUUGGUGGCGCGAUAGCGCCAACGUCCUCAACCUCCAAUGCAUCCCACCACAUGAUGAUGCCUGAAGAGCCUUGGUUUUUUG

## Output
1. -5.36
2. -4.84
3. -0.867
4. -3.26
5. -3.6
6. -0.465
7. -0.379
8. -2.23

Hey, just so you know, these numbers are from the RNAGym collection of RNA variant scans (doi:10.1073/pnas.2313332121).
